Origin of the recorded values: paper PMC5573954

- target-of-assay: hM2 (Homo sapiens, UniProt P08172)
- Sequence (P08172 whole entry): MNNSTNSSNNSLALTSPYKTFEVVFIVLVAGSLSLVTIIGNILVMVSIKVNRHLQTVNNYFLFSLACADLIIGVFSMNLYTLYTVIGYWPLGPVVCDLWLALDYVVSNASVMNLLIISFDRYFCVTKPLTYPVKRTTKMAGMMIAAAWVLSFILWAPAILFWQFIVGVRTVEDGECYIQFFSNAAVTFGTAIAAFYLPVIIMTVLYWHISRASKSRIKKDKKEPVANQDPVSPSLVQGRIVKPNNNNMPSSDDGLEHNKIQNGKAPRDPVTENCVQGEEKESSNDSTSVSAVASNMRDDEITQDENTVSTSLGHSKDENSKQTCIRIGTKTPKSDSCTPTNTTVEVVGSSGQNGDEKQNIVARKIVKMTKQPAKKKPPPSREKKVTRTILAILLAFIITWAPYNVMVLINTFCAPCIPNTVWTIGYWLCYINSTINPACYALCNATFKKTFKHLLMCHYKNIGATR
- test: GloSensor cAMP functional assay, HEK293 cells stably expressing hM2
- Assay type: cell-based
- condition-label: hM2; PAM mode, in the presence of an EC20 of ACh (3 nM); isoproterenol 50 nM; brackets 95% CI
pEC50: −log10 of the molar value.
recorded-metric: pEC50

* COc1nc2sc(C(=O)NC3CC3)c(N)c2c(C)c1Cl | 5.48

* * *

- target-of-assay: beta‐2 adrenergic receptors (Homo sapiens, UniProt P07550)
- Sequence (P07550 whole entry): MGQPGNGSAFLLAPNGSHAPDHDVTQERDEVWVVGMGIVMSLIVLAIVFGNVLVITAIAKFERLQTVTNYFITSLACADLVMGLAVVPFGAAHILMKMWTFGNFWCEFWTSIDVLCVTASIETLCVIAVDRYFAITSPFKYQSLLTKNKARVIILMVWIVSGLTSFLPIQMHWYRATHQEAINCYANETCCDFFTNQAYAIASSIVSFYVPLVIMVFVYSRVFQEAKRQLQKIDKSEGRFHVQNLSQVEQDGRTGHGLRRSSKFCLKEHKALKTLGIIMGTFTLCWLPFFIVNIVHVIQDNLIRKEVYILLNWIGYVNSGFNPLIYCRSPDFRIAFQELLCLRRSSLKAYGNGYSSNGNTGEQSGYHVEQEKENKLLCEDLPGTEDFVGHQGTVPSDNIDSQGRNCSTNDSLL
- test: Nonmuscarinic off-target functional activity: beta-2 adrenergic antagonism
recorded-metric: IC50 (µM)

• Cc1cc(C)c2c(N)c(C(=O)NC3CN(c4cccnc4)C3)sc2n1 = 2.99

* * *

- target-of-assay: UniProt P08173
- Sequence (P08173 1-479): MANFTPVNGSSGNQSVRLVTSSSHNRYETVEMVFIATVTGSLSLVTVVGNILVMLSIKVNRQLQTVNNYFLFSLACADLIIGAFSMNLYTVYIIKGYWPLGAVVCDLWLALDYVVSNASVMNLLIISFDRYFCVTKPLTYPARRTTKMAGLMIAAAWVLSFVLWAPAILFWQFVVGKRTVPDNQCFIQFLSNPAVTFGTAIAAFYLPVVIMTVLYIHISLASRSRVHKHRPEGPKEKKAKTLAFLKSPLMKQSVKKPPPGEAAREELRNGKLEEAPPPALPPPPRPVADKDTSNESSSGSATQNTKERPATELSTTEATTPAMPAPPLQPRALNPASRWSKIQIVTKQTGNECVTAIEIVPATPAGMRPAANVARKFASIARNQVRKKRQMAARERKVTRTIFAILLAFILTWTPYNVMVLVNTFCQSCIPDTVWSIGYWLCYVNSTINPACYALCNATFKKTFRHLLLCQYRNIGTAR
- test: GloSensor cAMP functional assay, HEK293 cells stably expressing hM4
recorded-metric: EC50 (nM)

* Cc1cc(F)c2[nH]c(=O)n(C3CCN(C4CCOCC4)CC3)c2c1 [GSK1034702] | 1430

* * *

- target-of-assay: hM2 (Homo sapiens, UniProt P08172)
- test: GloSensor cAMP functional assay, HEK293 cells stably expressing hM2
- Assay type: cell-based
recorded-metric: EC50 (nM)

- CCOC(=O)N1CCCC(N2CCC(c3cccnc3OC)CC2)CC1 (stereo not shown): 2880

* * *

- target-of-assay: hM4 (Homo sapiens)
- test: GloSensor cAMP functional assay, HEK293 cells stably expressing hM4
- condition-label: hM4; PAM mode, in the presence of an EC20 of ACh (15 nM); isoproterenol 50 nM; brackets 95% CI
pEC50: −log10 of the molar value.
recorded-metric: pEC50

- COc1nc2sc(C(=O)NC3CC3)c(N)c2c(C)c1Cl: 7.39

* * *

- target-of-assay: rat M4 receptor (rM4) (Rattus norvegicus, UniProt P08485)
- Sequence (P08485 whole entry): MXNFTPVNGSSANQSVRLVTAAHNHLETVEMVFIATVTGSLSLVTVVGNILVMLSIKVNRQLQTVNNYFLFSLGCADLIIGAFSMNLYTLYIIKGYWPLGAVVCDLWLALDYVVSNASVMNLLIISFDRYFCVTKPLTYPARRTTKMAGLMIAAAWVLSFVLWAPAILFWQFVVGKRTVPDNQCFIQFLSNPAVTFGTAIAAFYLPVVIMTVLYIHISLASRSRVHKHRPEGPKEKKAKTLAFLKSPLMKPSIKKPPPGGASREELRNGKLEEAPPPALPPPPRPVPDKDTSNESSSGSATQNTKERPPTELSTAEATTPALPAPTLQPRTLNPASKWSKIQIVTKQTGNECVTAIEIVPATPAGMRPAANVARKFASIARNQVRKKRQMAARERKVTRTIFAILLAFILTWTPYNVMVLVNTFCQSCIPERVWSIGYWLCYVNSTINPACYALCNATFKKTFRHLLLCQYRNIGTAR
- test: GloSensor cAMP functional assay, HEK293 cells stably expressing rM4
pEC50: −log10 of the molar value.
recorded-metric: pEC50

- CCOC(=O)N1CCCC(N2CCC(c3cccnc3OC)CC2)CC1 (stereo not shown) [PT‐6950]: 8.58

* * *

- target-of-assay: hM3 (Homo sapiens)
- Sequence (P20309 whole entry): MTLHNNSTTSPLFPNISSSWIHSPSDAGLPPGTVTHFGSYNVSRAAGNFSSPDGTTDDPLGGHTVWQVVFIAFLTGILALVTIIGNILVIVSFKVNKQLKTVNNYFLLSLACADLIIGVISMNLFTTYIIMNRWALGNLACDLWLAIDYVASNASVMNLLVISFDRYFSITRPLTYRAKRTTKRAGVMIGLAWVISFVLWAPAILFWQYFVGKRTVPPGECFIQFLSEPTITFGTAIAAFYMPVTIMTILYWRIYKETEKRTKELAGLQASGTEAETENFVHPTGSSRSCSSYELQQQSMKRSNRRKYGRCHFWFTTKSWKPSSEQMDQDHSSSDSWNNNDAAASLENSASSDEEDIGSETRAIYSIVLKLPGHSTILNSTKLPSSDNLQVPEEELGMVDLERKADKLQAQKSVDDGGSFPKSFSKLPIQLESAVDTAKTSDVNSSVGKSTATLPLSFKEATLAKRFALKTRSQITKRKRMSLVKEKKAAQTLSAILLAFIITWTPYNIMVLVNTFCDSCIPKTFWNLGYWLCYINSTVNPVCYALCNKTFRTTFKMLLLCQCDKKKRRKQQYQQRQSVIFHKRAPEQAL
- test: FLIPR Ca2+ functional assay, CHO K1 cells stably expressing hM3
- Format: cell-based
recorded-metric: EC50

• CCOC(=O)N1CCCC(N2CCC(c3cccnc3OC)CC2)CC1 (stereo not shown) = > 10 µM
